Data provenance is the supplement of paper PMC7695840.

Test system: Staphylococcus aureus MW2 delta-mecA (mecA-)
Assay: IC50 (growth, competition assay)
Conditions: fluorescent label: DsRed; cefoxitin: subinhibitory
Where a name gives a salt, the structure may show the parent alone.
Readout kind: IC50

Completed entries (count: 5):
| Molecule | IC50 |
| --- | --- |
| Nc1ccn([C@@H]2O[C@H](CO)[C@@H](O)C2(F)F)c(=O)n1 [Gemcitabine hydrochloride] | < 9.85 µM |
| CCC[C@@H]1C[C@@H](C(=O)N[C@@H]([C@H]2O[C@H](SC)[C@H](O)[C@@H](O)[C@H]2O)[C@@H](C)O)N(C)C1 [LINCOCIN] | < 9.85 µM |
| CC(C)(C)c1ccc(C(=O)CCCN2CCC(OC(c3ccccc3)c3ccccc3)CC2)cc1 [Ebastine] | < 9.85 µM |
| CC1COc2c(N3CCN(C)CC3)c(F)cc3c(=O)c(C(=O)O)cn1c23 (stereo not drawn) [Ofloxacin] | < 9.85 µM |
| CCCCCCCCCCCCCCCCOP(=O)([O-])OCC[N+](C)(C)C [MILTEX] | 31.1 µM |

Lab note: Clc1ccc(COC(Cn2ccnc2)c2ccc(Cl)cc2Cl)c(Cl)c1 (stereo not drawn) [MONISTAT] gave IC50 of < 9.85 µM

Lab note: C[C@H]1O[C@@H](n2cc(F)c(=O)[nH]c2=O)[C@H](O)[C@@H]1O [FURTULON] gave IC50 of < 9.85 µM

Lab note: C=C1C(=O)[C@]23[C@H](CC[C@@H]1[C@@H]2O)[C@]12CO[C@@]3(O)[C@H](O)[C@H]1C(C)(C)CC[C@@H]2O [RUBESCENSIN A] gave IC50 of 17.9 µM

* * *

System: Staphylococcus aureus MW2 (mecA+)
Test: IC50 (growth, competition assay)
Conditions: fluorescent label: DsRed; cefoxitin: subinhibitory
Structures can show the parent of a compound that is named as a salt.
Readout kind: IC50 (µM)
Use µM as the unit, but write only the number.

| Compound | Target system | Observed measurement |
| --- | --- | --- |
| O=C1OC(CN2CCOCC2)CN1/N=C/c1ccc([N+](=O)[O-])o1 (stereo not drawn) | Staphylococcus aureus MW2 (mecA+) | 17.8 |
| O=Nc1ccc2oc(=O)ccc2c1 | Staphylococcus aureus MW2 (mecA+) | 53.1 |
| CCCCCCCCCc1ccc(OCCOCCOCCOCCOCCOCCOCCOCCOCCO)cc1 | Staphylococcus aureus MW2 (mecA+) | 32 |
| Cn1cncc1[C@@](N)(c1ccc(Cl)cc1)c1ccc2c(c1)c(-c1cccc(Cl)c1)cc(=O)n2C [Tipifarnib (Zarnestra)] | Staphylococcus aureus MW2 (mecA+) | 29.6 |
| CSc1ccc2c(c1)N(CCC1CCCCN1C)c1ccccc1S2 (stereo not drawn) [Thioridazine hydrochloride] | Staphylococcus aureus MW2 (mecA+) | 57.7 |

Please turn your attention to the following entry.
The value of IC50 recorded for C#CCCCCCCCCCCCC(O)CC(O)CO.C=CCCCCCCCCCCCC(O)CC(O)CO (stereo not drawn) when tested on Staphylococcus aureus MW2 (mecA+) reads 16.4

* * *

Tested on: Staphylococcus aureus MW2 (mecA+)
Experiment: IC50 (growth, competition assay)
Conditions: fluorescent label: DsRed; cefoxitin: subinhibitory
Readout kind: pIC50
Keep it numeric: pIC50 is minus log10 of the concentration in mol/L.

| Compound | Target system | pIC50 |
| --- | --- | --- |
| CC1=CC(=O)c2c(O)cccc2C1=O | Staphylococcus aureus MW2 (mecA+) | 4.74 |
| N[C@@H]1CCCN(c2c(/C=C3\SC(=O)NC3=O)cccc2-c2ccccc2)C1 | Staphylococcus aureus MW2 (mecA+) | 3.95 |
| O=C(O)Cc1cc(I)c(Oc2ccc(O)c(I)c2)c(I)c1 | Staphylococcus aureus MW2 (mecA+) | 4.90 |
| Cc1nnc(SCC2=C(C(=O)O)N3C(=O)[C@@H](NC(=O)Cn4cnnn4)[C@H]3SC2)s1 [ANCEF] | Staphylococcus aureus MW2 (mecA+) | 4.75 |

Please turn your attention to the following entry.
Lab note: COc1ccc([C@@H](C)C(=O)c2ccc(O)cc2O)cc1 [ANGOLENSIN (R)] gave pIC50 of 4.65
